Result Type: melting point

> print(dat)
                                    molecule  experimental.value
 1  C[C@]1(CN2CCN(C3CCN(C(=O)OCc4ccc(OC(F)(F)F)cc4)CC3)CC2)Cn2cc([N+](=O)[O-])nc2O1       105 to 106 °C
 2         COc1ccc(C(=O)c2ccc(=O)[nH]c2C)cc1       228 to 230 °C
 3  CCOC(=O)Cc1c(C)n(-c2ncnc3cc(Cl)ccc23)c2ccc(OC)cc12       103 to 105 °C
 4  Cc1c(F)cc(C(C)(C)C)c(O)c1-c1nc2ccc(F)cc2c(=O)[nH]1       247 to 248 °C
 5       FC(F)(F)c1cccc(Sc2cc(Br)nc(Br)c2)c1         68 to 70 °C
 6  CON=C(Nc1nc(C)cc(C)n1)NS(=O)(=O)c1ccccc1-c1ccccc1       190 to 192 °C
 7  CC(C)c1cccc(C(C)C)c1NC(=O)CN1CN(c2ccccc2)C2(CCCCC2)C1       151 to 153 °C
 8             Cc1cc(NC(=O)c2cccnc2Cl)[nH]n1            > 300 °C
 9  O=c1[nH]c2c(Cl)cccc2c(=O)n1CCCN1CC=C(c2cccc(C(F)(F)F)c2)CC1       205 to 210 °C
10      CS(=O)(=O)Oc1ccc([N+](=O)[O-])c(O)c1       123 to 124 °C
11  COC(=O)c1nc(-c2ccc(Cl)c(OC)c2F)nc(N)c1C(C)F (centres undefined)       150 to 152 °C
12  O=C(Nc1cccnc1)N1CCN(c2nccc(-c3ccc(F)c(F)c3)n2)CC1       231 to 232 °C
13                 FC(F)=C(F)CC(=S)Nc1ccccc1         65 to 67 °C
14  CC1CCC(C(C)C)C(OC(=O)N2CC(=O)N(C)c3ccc(Cl)cc3C2c2ccccc2)C1 (centres undefined)              144 °C
15  CC(C)(C)OC(=O)Nc1ccc2[nH]c(C(=O)OCc3ccccc3)cc2c1       180 to 182 °C
16  CC1CCN(c2cc(F)cc(C(=O)Nc3ccc(OCc4n[nH]c(=O)n4-c4ccccc4)c4ccccc34)c2)CC1       140 to 143 °C
17  COP(=O)(CC(O)c1c(C)cc(C)cc1-c1ccc(F)c(C)c1)OC (centres undefined)        98 to 100 °C
18                  Cc1nc(N)sc1C(=O)c1cccnc1       287 to 288 °C
19  Cc1cc(O)c(C(C)(C)C)cc1SC(Sc1cc(C(C)(C)C)c(O)cc1C)Sc1cc(C(C)(C)C)c(O)cc1C       204 to 205 °C
